Recorded values, source the supplement of paper PMC9170038.

# Test system: K4 kissing-loop RNA reporter;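 further: bound reporter read as fluorescence of individual clusters on recovered sequencing chips by microscopy, with normalized cluster intensities fitted with a binding model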
# procedure_summary: apparent KD of K4 kissing-loop reporter; higher = weaker reporter binding
# condition_summary: Eterna round: R107; input ligand: none
Assign class by apparent KD of K4 kissing-loop reporter: not lower than 200 nM means fulfilled; lower than 200 nM means not fulfilled.

Asked: Form field: apparent KD of K4 kissing-loop reporter at least 200 nM? Entry: AAAUCGUUCAGAAGGAGCGUGGAUUAUUCUUAAAUAUUUAUUACGAGUGAUGUUCGUAAUUCACAGGUAGGUCGCUGAUCGAUAA [JR_ExcArginiB_Sub003]
Given back: not fulfilled

Asked: Kindly determine if apparent KD of K4 kissing-loop reporter recorded for GGUGCUGUCUGUGCCGCCCUCCUCGUUCCUCGAGGACCGGUACGGCCGCCACUCGAGUGAUGUUCGGGUAGCGAUCCCUGCUAGC [Bdazzled - #17 Exc. Tryptophan A] is above or exactly 200 nM.
Given back: fulfilled

Asked: Quick check: does AUUCGUUUAUGUGAUACCAGACUUUGCAGUGAUGUUGCAUUAAUUUUUGAUUAUUAGUUUGUCCCUUGGCAGCACUAUUUAUUUA [JR_SSTheophyB_Sub004] have apparent KD of K4 kissing-loop reporter greater than or equal to 200 nM?
Given back: not fulfilled

Asked: Test whether the sequence GCUCGGGAGUGAUGUUCCAAGUGGUGUUAACGAGGACCGGUACGGCCGCCACUCGAUACGGCCGGACCGUAGGAUAAACUGGAGC [Same State - Tryptophan A (Freestyle 12)] records apparent KD of K4 kissing-loop reporter of 200 nM or higher.
Given back: not fulfilled

Asked: Could you tell me if the measured apparent KD of K4 kissing-loop reporter of UAACUUGCAGUGAUGUUGCAAGAACUGGAUACCAGCAUGGAAACAUGCCCUUGGCAGCCAGAAGCUGGCUGCUUGUAAUGUCAGC [Design6] reaches 200 nM or more?
Given back: not fulfilled

Asked: Please check the record GCCGUAGAUUGAAGGAGCGUGGACCUAUCGCUUGAACAGUGAUGUUGUUUAUCUAGGAAGCCGCAGGUAGGUCGCAAUCUACGGC and state if its apparent KD of K4 kissing-loop reporter is at or above 200 nM.
Given back: fulfilled

Asked: For this sequence, is measured apparent KD of K4 kissing-loop reporter 200 nM or higher? GGAUAGGACAGAGGAUAUCUCUGAGGCAAGAAAACUUGUCUCAAAAGAGAUGACUCAGUGAUGUUGAGAGAAGGCUGUCCUAUCG [FmnBX 8 - #SwitchBubble #StaticStem]
Given back: not fulfilled

Asked: Reported apparent KD of K4 kissing-loop reporter reaches at least 200 nM for UUUAUGAUGUCGGCCGCCACUGGAUUAAUAUGUGUGUAAUCUAGUUCUGAGUGAUGUUUAGAGUCCAGGACCGGGACAUUAGUUA [#12 K4 Tryptophan B Exclusion] ?
Given back: fulfilled

Asked: Does the sequence AUACCUCUACGAGUGAUGUUUGUUGAGGAUACCAGCAUGUAUAGUUGCCCUUGGCAGCCUUGGCUCGUGCGCUCCCUCCGAACCG [theeternabot_exclusion_KL_Theo_A_30] have recorded apparent KD of K4 kissing-loop reporter that is 200 nM or more?
Given back: fulfilled

Asked: Decide: is the reported value of apparent KD of K4 kissing-loop reporter for GCGGUGUUAUGCCCGAGGGUAUAGUUGCCAAAGGAUAUGAUUGUUGUCAGAAGGUUGCGCUUGAUCAGUGAUGUUGGUCUCCAAC [theeternabot_sameState_KL_FMN_A_12] equal to or greater than 200 nM?
Given back: fulfilled

Asked: State whether the measured apparent KD of K4 kissing-loop reporter reaches 200 nM, counting equality as reaching it, for AUUUUUUUGUCAGGAUAUUAGUGUUGGUUUGGUUUGUUAGUGAUGUUGAUAUUUGUUUUAUGUAUUUAAGAAGGGAUUUAGCUGU [ppdemullin]
Given back: fulfilled
